Biological target: EGFR T790M/L858R (Homo sapiens, UniProt P00533, L858R/T790M)
Sequence (P00533 25-1210 T790M/L858R): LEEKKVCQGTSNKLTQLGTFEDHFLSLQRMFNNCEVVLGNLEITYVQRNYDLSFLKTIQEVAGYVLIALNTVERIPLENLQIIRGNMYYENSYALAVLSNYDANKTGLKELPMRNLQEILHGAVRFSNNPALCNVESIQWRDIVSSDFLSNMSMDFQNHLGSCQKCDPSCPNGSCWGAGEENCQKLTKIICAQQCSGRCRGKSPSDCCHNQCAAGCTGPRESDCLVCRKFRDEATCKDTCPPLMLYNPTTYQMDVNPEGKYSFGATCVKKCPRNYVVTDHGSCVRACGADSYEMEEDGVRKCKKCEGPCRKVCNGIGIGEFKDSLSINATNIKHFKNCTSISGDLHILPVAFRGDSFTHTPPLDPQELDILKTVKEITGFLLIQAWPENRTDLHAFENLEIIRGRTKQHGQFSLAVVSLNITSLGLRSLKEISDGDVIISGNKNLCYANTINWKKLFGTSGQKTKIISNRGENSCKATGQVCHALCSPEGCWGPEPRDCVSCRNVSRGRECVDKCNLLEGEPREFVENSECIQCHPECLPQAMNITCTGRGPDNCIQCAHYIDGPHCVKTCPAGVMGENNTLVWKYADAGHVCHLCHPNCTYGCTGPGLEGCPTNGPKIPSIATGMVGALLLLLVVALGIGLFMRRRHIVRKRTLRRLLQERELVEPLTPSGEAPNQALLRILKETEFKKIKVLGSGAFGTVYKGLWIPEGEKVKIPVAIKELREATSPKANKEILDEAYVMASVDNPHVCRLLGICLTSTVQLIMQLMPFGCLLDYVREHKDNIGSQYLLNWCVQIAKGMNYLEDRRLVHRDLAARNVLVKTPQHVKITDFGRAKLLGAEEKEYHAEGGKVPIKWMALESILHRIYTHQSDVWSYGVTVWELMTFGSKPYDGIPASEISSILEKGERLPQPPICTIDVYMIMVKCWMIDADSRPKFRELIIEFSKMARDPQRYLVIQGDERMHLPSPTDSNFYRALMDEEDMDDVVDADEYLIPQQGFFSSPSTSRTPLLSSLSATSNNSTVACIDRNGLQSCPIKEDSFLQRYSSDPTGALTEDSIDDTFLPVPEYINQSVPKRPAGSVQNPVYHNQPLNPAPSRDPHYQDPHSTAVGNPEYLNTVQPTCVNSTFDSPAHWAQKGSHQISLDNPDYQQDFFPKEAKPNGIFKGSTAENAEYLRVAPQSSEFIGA
Assay: EGFR T790M/L858R enzyme HTRF inhibition assay
Settings: 20 μM ATP, read-out: EGFR L858R/T79M IC50
Below, each of the compounds is paired with its reported IC50 value.
reported_property: IC50 (nM)

smiles_code: C=CC(=O)Nc1cc(Nc2nccc(-c3cn4c5c(cccc35)OC3(CC3)C4)n2)c(OC)cc1N(C)CCN(C)C
test_target: EGFR T790M/L858R (Homo sapiens, UniProt P00533, L858R/T790M)
quantitative_result: 0.2
//
smiles_code: C=CC(=O)Nc1cc(Nc2nccc(-c3c4n(c5cc(F)ccc35)CCOC4)n2)c(OC)cc1N(C)CCN(C)C
test_target: EGFR T790M/L858R (Homo sapiens, UniProt P00533, L858R/T790M)
quantitative_result: 0.09
//
smiles_code: C=CC(=O)Nc1cc(Nc2ncc(F)c(-c3c4n(c5cc(Cl)ccc35)CCOC4)n2)c(OC)cc1N(C)CCN(C)C
test_target: EGFR T790M/L858R (Homo sapiens, UniProt P00533, L858R/T790M)
quantitative_result: 0.8
//
smiles_code: C=CC(=O)Nc1cc(Nc2nccc(-c3c4n(c5ccccc35)CCOC4)n2)c(OC)cc1N(C)CCN(CC)CC
test_target: EGFR T790M/L858R (Homo sapiens, UniProt P00533, L858R/T790M)
quantitative_result: 0.29

====

Below, each of the compounds is paired with its reported pIC50 value.
Tested on: A431 cells EGFR WT
Experiment: A431 cell viability assay (Cell Titer-Glo, 6 days)
Assay type: cell-based, human
Conditions: Homo sapiens, A-431, 144 h; A431 cells, 6 days
pIC50: −log10 of the molar value.
reported_property: pIC50

compound: C=CC(=O)Nc1cc(Nc2nccc(-c3c4n(c5ccccc35)CCC4)n2)c(OC)cc1CCCN(C)C [Embodiment 10]
quantitative_result: 5.65
//
compound: C=CC(=O)Nc1cc(Nc2nccc(-c3cn4c5c(cccc35)OCC(C)(C)C4)n2)c(OC)cc1N(C)CCN(C)C [Embodiment 41]
quantitative_result: 5.77
//
compound: C=CC(=O)Nc1cc(Nc2nccc(-c3c4n(c5ccccc35)CCOC4)n2)c(OC)cc1N(C)CCNC [Embodiment 27]
quantitative_result: 6.31
//
compound: C=CC(=O)Nc1cc(Nc2nccc(-c3c4n(c5ccccc35)CCC4)n2)c(OC)cc1C#CCN(C)C [Embodiment 8]
quantitative_result: 5.26
//
compound: C=CC(=O)Nc1cc(Nc2ncc(F)c(-c3c4n(c5c(OC)cccc35)CCOC4)n2)c(OC)cc1N(C)CCN(C)C [Embodiment 35]
quantitative_result: 6.01
//
compound: C=CC(=O)Nc1cc(Nc2nccc(-c3c4n(c5ccccc35)CCOC4)n2)c(OC)cc1N(C)CCN1CCC1 [Embodiment 26]
quantitative_result: 5.66
//
compound: C=CC(=O)Nc1cc(Nc2nccc(-c3c4n(c5ccc(F)cc35)CCC4)n2)c(OC)cc1N(C)CCN(C)C [Embodiment 13]
quantitative_result: 6.26

====

Below, each of the compounds is paired with its reported IC50 value.
Molecular target: EGFR T790M/L858R (Homo sapiens, UniProt P00533, L858R/T790M)
Assay: EGFR T790M/L858R enzyme HTRF inhibition assay
Conditions: 20 μM ATP, read-out: EGFR L858R/T79M IC50

compound: C=CC(=O)Nc1cc(Nc2nccc(-c3c4n(c5ccccc35)CCOC4)n2)c(OC)cc1N(C)CCNC(C)(C)C
endpoint_unit: nM
IC50: 1.9
--
compound: C=CC(=O)Nc1cc(Nc2nccc(-c3c4n(c5ccccc35)CCOC4)n2)c(OC)cc1N(C)CCN(C)C
endpoint_unit: nM
IC50: 0.21
--
compound: C=CC(=O)Nc1cc(Nc2nccc(-c3c4n(c5ccccc35)CCC4)n2)c(OC)cc1N(C)CCN(C)C
endpoint_unit: nM
IC50: 0.32
--
compound: C=CC(=O)Nc1cc(Nc2nccc(-c3c4n(c5ccccc35)CCOC4)n2)c(OC)cc1N(C)CCN(C)CC
endpoint_unit: nM
IC50: 0.2
--
compound: C=CC(=O)Nc1cc(Nc2nccc(-c3c4n(c5ccc(F)cc35)CCC4)n2)c(OC)cc1N(C)CCN(C)C
endpoint_unit: nM
IC50: 0.24
--
compound: C=CC(=O)Nc1cc(Nc2ncc(F)c(-c3c4n(c5ccccc35)CCOC4)n2)c(OC)cc1N(C)CCNC
endpoint_unit: nM
IC50: 0.2
--
compound: C=CC(=O)Nc1cc(Nc2ncc(F)c(-c3c4n(c5ncccc35)CCOC4)n2)c(OC)cc1N(C)CCN(C)C
endpoint_unit: nM
IC50: 0.5
--
compound: C=CC(=O)Nc1cc(Nc2nccc(-c3c4n(c5ccccc35)CCOC4)n2)c(OCC)cc1N(C)CCN(C)C
endpoint_unit: nM
IC50: 0.2
--
compound: C=CC(=O)Nc1cc(Nc2nccc(-c3c4n(c5ccccc35)CCC4)n2)c(OC)cc1C#CCN(C)C
endpoint_unit: nM
IC50: 0.91
--
compound: C=CC(=O)Nc1cc(Nc2nccc(-c3c4n(c5ccccc35)CCC4)n2)c(OC)cc1N(C)CCCN(C)C
endpoint_unit: nM
IC50: 2.19
--
compound: C=CC(=O)Nc1cc(Nc2nccc(-c3c4n(c5ccccc35)CCOC4)n2)c(OC)cc1N(C)C(C)CN(C)C (centres unmarked)
endpoint_unit: nM
IC50: 0.2
--
compound: C=CC(=O)Nc1cc(Nc2nccc(-c3c4n(c5ccccc35)CCC4=O)n2)c(OC)cc1N(C)CCN(C)C
endpoint_unit: nM
IC50: 0.33
--
compound: C=CC(=O)Nc1cc(Nc2nccc(-c3cn4c5c(cccc35)OCC(C)(C)C4)n2)c(OC)cc1N(C)CCN(C)C
endpoint_unit: nM
IC50: 1.5
--
compound: C=CC(=O)Nc1cc(Nc2nccc(-c3c4n(c5ccccc35)CCC4)n2)c(OC)cc1N1CCC(N(C)C)C1 (centres unmarked)
endpoint_unit: nM
IC50: 3.07
